testTarget: T1, GFP-9S library array, motif 4 ND N98E;D124M (synthetic construct, N98E;D124M)
T1 chain: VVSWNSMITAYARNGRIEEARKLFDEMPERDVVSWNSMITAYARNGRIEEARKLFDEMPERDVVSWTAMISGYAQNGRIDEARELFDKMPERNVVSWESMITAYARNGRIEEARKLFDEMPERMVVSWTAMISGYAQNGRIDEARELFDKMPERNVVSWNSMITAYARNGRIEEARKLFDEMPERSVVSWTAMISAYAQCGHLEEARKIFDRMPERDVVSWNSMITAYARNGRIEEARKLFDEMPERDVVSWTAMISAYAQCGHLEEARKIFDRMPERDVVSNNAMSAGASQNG
protocolText: high-throughput RNA pulldown from lysate on Ni-NTA beads; HRP: 50 mM Tris pH 8, 150 mM NaCl, 1 mM beta-mercaptoethanol, 50 ug/ml BSA, 3 ug/ml yeast RNA, 0.5% heparin; ITC and FP: Tris pH 8, 200 mM KCl, 5% glycerol; MST: 50 mM Tris pH 8, 200 mM NaCl, 1 mM DTT, BSA, heparin, 0.05% Tween 20
details: tags: N-terminal His-eGFP; label: 5' IRDye 800CW
pKd: −log10 of the molar value.
measurementType: pKd

{"columns": ["binder", "experimentalResult"],
 "data": [
  ["AUUAUACGUGA (ssRNA) [IR-rpoA-U]", 6.69],
  ["AUUAAACGUGA (ssRNA) [IR-rpoA-A]", 6.44]
]}
